- System: A375 cells
- PROCEDURE_SUMMARY: A375 cell proliferation assay (1), resazurin, 96-well
- Type: cell-based
- CONDITION_SET: Homo sapiens, A-375, inhibition of cell proliferation
- Description: A375 Cell Proliferation Assay (1) […]
Items are presented alongside their recorded IC50.

{"COMPOUND": "COC(C)(C)CCNC(=O)Nc1cc(-c2cc(-c3ccnc(NC(=O)C4CC4)c3)cnn2)c(C)cc1F", "IC50": "1000 to 10000 nM"}
{"COMPOUND": "COC(=O)Nc1cc(-c2cncc(-c3cc(NC(=O)N4CCCCC4)ccc3C)c2)ccn1", "IC50": "500 to 1000 nM"}
{"COMPOUND": "COC(=O)Nc1cc(-c2cccc(-c3cc(NC(=O)NCCC(C)(C)OC)c(F)cc3C)c2)ccn1", "IC50": "100 to 500 nM"}
{"COMPOUND": "Cc1ccc(NC(=O)N[C@H]2CCc3ccccc32)cc1-c1cc(OCCO)nc(N2CCOCC2)c1", "IC50": "500 to 1000 nM"}
{"COMPOUND": "Cc1cc(F)c(NC(=O)NCC23CC(F)(C2)C3)cc1-c1cc(OCCO)nc(-c2ccnc3[nH]ncc23)c1", "IC50": "1000 to 10000 nM"}
{"COMPOUND": "Cc1cc(F)c(NC(=O)NCC[C@@H]2CCO2)cc1-c1cc(OCCO)nc(-c2ccnc3[nH]ncc23)c1", "IC50": "1000 to 10000 nM"}
{"COMPOUND": "CCNC(=O)Nc1cc(-c2cc(OCCO)nc(-c3ccnc(NC(=O)C4CC4)c3)c2)c(C)cc1F", "IC50": "1000 to 10000 nM"}
{"COMPOUND": "Cc1ccc(NC(=O)N2CC[C@@H](C(F)(F)F)C2)cc1-c1cncc(-c2cc(NC(=O)C3CC3)ncn2)c1", "IC50": "100 to 500 nM"}
{"COMPOUND": "COC(C)(C)CCNC(=O)Nc1cc(-c2cc(OCCO)nc(-c3ccnc4[nH]ccc34)c2)c(C)cc1F", "IC50": "1000 to 10000 nM"}
{"COMPOUND": "Cc1ncc(NC(=O)NCCC2(C)CC2)cc1-c1ccnc(-c2ccnc(NC(=O)C3(C#N)CC3)c2)c1", "IC50": "1000 to 10000 nM"}
{"COMPOUND": "COC(=O)Nc1cc(-c2cc(-c3cc(NC(=O)NCCC4(C)CC4)c(F)cc3C)cc(OCCO)n2)ccn1", "IC50": "≤ 100 nM"}
{"COMPOUND": "Cc1cc(F)c(NC(=O)N2CC[C@H](C(F)(F)F)C2)cc1-c1cncc(-c2cc(NC(=O)C3CC3)ncn2)c1", "IC50": "100 to 500 nM"}
{"COMPOUND": "Cc1cc(F)c(NC(=O)NCCC2(C)CC2)cc1-c1ccnc(-c2ccnc3c2CC(=O)N3)c1", "IC50": "1000 to 10000 nM"}
{"COMPOUND": "COC(=O)Nc1cc(-c2nc(OCCO)cc(-c3cc(NC(=O)NC4CC(C)(C)C4)cnc3C)n2)ccn1", "IC50": "1000 to 10000 nM"}
{"COMPOUND": "Cc1ccc(NC(=O)N2CC[C@H](C(C)C)C2)cc1-c1cncc(-c2cc(NC(=O)C3CC3)ncn2)c1", "IC50": "≤ 100 nM"}
